The values you see were collected from the supplement of paper PMC10567573.

Recorded protein stability index values for a group of variants are listed next.
B1: VDR (parent)
chain: VTLELSQLSMLPHLADLVSYSIQK

- Variants of: B1
- Procedure Text: protein stability index of a GFP-peptide fusion (GPS, HEK-293T) (PSI 1-6); higher = more stable;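 further: lentivirally expressed fusions sorted by FACS into six bins by GFP to DsRed ratio, PSI derived from sequencing read proportions per bin multiplied by bin number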
- Condition Notes: c terminus: a fixed tail appended
Answer with a number only.

In the examples that follow, each entry is paired with its recorded protein stability index.
P12Y : 3.69
L5Q : 2.01
D16S : 2.82
L8H : 2.92
M10N : 2.14

Could you now look at the following variant, please?
Exercise: Please look at this variant and report its protein stability index: Q7S
Solution: 2.99
